TARGET OR SYSTEM: atypical BChE (Homo sapiens, UniProt P06276, D98G)
Construct: Human native serum was used as a source of BChE; from tissue; host or cells: human serum
Sequence (P06276 29-602 D98G): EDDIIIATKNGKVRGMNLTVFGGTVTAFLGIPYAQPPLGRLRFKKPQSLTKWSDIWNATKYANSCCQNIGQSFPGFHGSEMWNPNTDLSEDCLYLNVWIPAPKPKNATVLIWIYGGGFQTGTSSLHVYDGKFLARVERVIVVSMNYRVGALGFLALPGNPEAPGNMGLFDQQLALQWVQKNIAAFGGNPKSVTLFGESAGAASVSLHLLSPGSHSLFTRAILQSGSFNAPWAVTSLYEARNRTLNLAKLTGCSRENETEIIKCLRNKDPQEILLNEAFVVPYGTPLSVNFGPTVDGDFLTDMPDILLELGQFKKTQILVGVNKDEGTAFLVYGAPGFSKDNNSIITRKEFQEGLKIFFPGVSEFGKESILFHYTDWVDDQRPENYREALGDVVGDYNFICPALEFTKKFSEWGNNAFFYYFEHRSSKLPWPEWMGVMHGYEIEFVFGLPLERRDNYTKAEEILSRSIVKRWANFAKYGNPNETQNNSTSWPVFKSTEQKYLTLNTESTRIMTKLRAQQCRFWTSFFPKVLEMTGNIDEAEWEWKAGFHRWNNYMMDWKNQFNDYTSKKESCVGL
TEST NAME: Reversible inhibition of atypical BChE (Ellman method, Hunter–Downs evaluation)
Assay type: biochemical
RUN CONDITIONS: enantiomers; substrate PTCh, pH 7.4, 25 °C; K(I) ± SE; read-out: K(I)
QUANTITY KIND: pKi
Give bare numbers, as −log10 of the molar value.

OCc1cc([C@H](O)CNCCCCCCOCCCCc2ccccc2)ccc1O [(S)-salmeterol]	4.17

// for each compound below, give its pKi
1. CC(C)(C)NC[C@@H](O)c1ccc(O)c(CO)c1 [(S)-salbutamol]
2. CC(C)(C)NC[C@H](O)c1ccc(O)c(CO)c1 [(R)-salbutamol]
3. CC(C)(C)NC[C@H](O)c1cc(O)cc(O)c1 [(R)-terbutaline]
4. OCc1cc([C@@H](O)CNCCCCCCOCCCCc2ccccc2)ccc1O [(R)-salmeterol]

1: 2.82; 2: 2.64; 3: 3.00; 4: 4.15

Hello, please tell me recorded pKi for this one: CC(C)NC[C@H](O)c1ccc(O)c(O)c1 [(R)-isoproterenol]
2.85

----------
TARGET OR SYSTEM: human AChE (Homo sapiens)
Sequence (P22303 32-614): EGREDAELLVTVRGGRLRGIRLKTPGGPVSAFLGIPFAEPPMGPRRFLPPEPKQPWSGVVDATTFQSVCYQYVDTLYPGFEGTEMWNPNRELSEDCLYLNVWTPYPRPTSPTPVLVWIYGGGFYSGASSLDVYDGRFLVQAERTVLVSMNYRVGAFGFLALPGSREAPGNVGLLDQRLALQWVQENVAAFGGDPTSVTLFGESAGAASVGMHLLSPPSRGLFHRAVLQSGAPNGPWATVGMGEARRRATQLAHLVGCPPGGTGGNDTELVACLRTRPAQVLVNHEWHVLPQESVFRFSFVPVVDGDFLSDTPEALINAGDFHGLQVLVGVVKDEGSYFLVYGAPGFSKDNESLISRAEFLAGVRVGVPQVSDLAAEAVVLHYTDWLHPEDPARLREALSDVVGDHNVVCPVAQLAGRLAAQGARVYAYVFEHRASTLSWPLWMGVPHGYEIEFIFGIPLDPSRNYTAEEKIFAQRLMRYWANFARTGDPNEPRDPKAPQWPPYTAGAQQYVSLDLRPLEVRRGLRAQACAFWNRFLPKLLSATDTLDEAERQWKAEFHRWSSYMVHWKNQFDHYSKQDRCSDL
TEST NAME: biochemical
Format: biochemical
RUN CONDITIONS: enantiomers; substrate ATCh, pH 7.4, 25 °C; K(I) ± SE; read-out: K(I)
Description: ATCh was used as a substrate for AChE and PTCh as a substrate for BChE. The reaction mixture contained DTNB (final concentration 0.3 mM), buffer, enzyme suspension, inhibitor (0.5–10 mM) and ATCh or PTCh (0.025–1.0 mM). Inhibition of enzymes was determined by measuring the decrease in enzyme activity in the presence of inhibitors. […]
# if measured Ki < 2000 µM: Condition met  # else: Condition not met

Check out these entries, answers already filled in.
CC(C)(C)NC[C@H](O)c1ccc(O)c(CO)c1 [(R)-salbutamol]	Condition not met
CC(C)(C)NC[C@@H](O)c1ccc(O)c(CO)c1 [(S)-salbutamol]	Condition met
OCc1cc([C@@H](O)CNCCCCCCOCCCCc2ccccc2)ccc1O [(R)-salmeterol]	Condition met

Would you kindly verify if Ki of OCc1cc([C@H](O)CNCCCCCCOCCCCc2ccccc2)ccc1O [(S)-salmeterol] is strictly less than 2000 µM?
Condition met

----------
So I've got a bunch of molecules here, and I need their Ki values.
TARGET OR SYSTEM: usual BChE (Homo sapiens)
Construct: Human native serum was used as a source of BChE; from tissue; host or cells: human serum (donor, IMROH Zagreb)
TEST NAME: biochemical
Type: biochemical
Note: state the figure and append the unit.

CC(C)(C)NCC(O)c1ccc(O)c(CO)c1 (stereo not shown) [Salbutamol]	71 µM

// for each molecule below, give its Ki
1. CC(Cc1ccc(O)cc1)NCC(O)c1cc(O)cc(O)c1 (stereo not shown) [Fenoterol]
2. CNC[C@H](O)c1ccc(O)c(O)c1 [Epinephrine]
3. OCc1cc(C(O)CNCCCCCCOCCCCc2ccccc2)ccc1O (stereo not shown) [Salmeterol]

["24 µM", "3700 µM", "13 µM"]

----------
TARGET OR SYSTEM: human AChE (Homo sapiens)
TEST NAME: biochemical
Format: biochemical
QUANTITY KIND: pKi
Answers are plain numbers, as −log10 of the molar value.

CC(C)(C)NCC(O)c1ccc(O)c(CO)c1 (stereo not shown)	2.70

// for each molecule below, give its pKi
1. OCc1cc(C(O)CNCCCCCCOCCCCc2ccccc2)ccc1O (stereo not shown)
2. CNC[C@H](O)c1ccc(O)c(O)c1 [Epinephrine]

1. 4.52
2. 2.19

Hello, please tell me recorded pKi for this one: CC(Cc1ccc(O)cc1)NCC(O)c1cc(O)cc(O)c1 (stereo not shown)
3.07

----------
TARGET OR SYSTEM: fluoride-resistant BChE (Homo sapiens, UniProt P06276)
Sequence (P06276 29-602, change not shown): as the sequence (P06276 29-602 D98G) above, with G70D counted along it
RUN CONDITIONS: enantiomers; substrate PTCh, pH 7.4, 25 °C; K(I) ± SE
QUANTITY KIND: pKi
Numbers only, as −log10 of the molar value.

As a guide, the following entries are already answered.
CC(C)(C)NC[C@H](O)c1ccc(O)c(CO)c1 [(R)-salbutamol]	3.52
CC(C)(C)NC[C@@H](O)c1ccc(O)c(CO)c1 [(S)-salbutamol]	3.52
CC(C)(C)NC[C@H](O)c1cc(O)cc(O)c1 [(R)-terbutaline]	3.66
CC(C)NC[C@H](O)c1ccc(O)c(O)c1 [(R)-isoproterenol]	2.85
OCc1cc([C@@H](O)CNCCCCCCOCCCCc2ccccc2)ccc1O [(R)-salmeterol]	4.51

Please look at the following molecule next.
Hello, please tell me recorded pKi for this one: OCc1cc([C@H](O)CNCCCCCCOCCCCc2ccccc2)ccc1O [(S)-salmeterol]
4.70

----------
TARGET OR SYSTEM: atypical BChE (Homo sapiens, UniProt P06276, D98G)
Construct: Human native serum was used as a source of BChE; from tissue; host or cells: human serum
TEST NAME: Reversible inhibition of atypical BChE (Ellman method, Hunter–Downs evaluation)
Assay type: biochemical
QUANTITY KIND: Ki (µM)
Answers are plain numbers, in µM.

As a guide, the following entries are already answered.
CC(Cc1ccc(O)cc1)NCC(O)c1cc(O)cc(O)c1 (stereo not shown) [Fenoterol]	630
OCc1cc(C(O)CNCCCCCCOCCCCc2ccccc2)ccc1O (stereo not shown) [Salmeterol]	86
CC(C)(C)NCC(O)c1ccc(O)c(CO)c1 (stereo not shown) [Salbutamol]	1400

Please look at the following compound next.
Hello, please tell me recorded Ki for this one: CCC(NC(C)C)C(O)c1ccc(O)c(O)c1 (stereo not shown) [Isoetharine]
260

----------
TARGET OR SYSTEM: fluoride-resistant BChE (Homo sapiens)
RUN CONDITIONS: racemate; substrate PTCh, 0.1 M phosphate buffer pH 7.4, 25 °C; K(I) ± SE
pKi: −log10 of the molar value.
Lab note: compare pKi against 4. Equal or greater, write met. Smaller, write not met.

Check out these entries, answers already filled in.
CC(Cc1ccc(O)cc1)NCC(O)c1cc(O)cc(O)c1 (centres unmarked)	met
OCc1cc(C(O)CNCCCCCCOCCCCc2ccccc2)ccc1O (centres unmarked)	met
CNC[C@H](O)c1ccc(O)c(O)c1 [Epinephrine]	not met

With those in mind, consider the next molecule.
Decide: is the reported value of pKi for CC(C)(C)NCC(O)c1ccc(O)c(CO)c1 (centres unmarked) equal to or greater than 4?
not met

----------
So I've got a bunch of compounds here, and I need their pKi values.
TARGET OR SYSTEM: usual BChE (Homo sapiens, UniProt P06276)
Construct: Human native serum was used as a source of BChE; from tissue; host or cells: human serum (donor, IMROH Zagreb)
Sequence (P06276 29-602): as the sequence (P06276 29-602 D98G) above, with G70D counted along it
TEST NAME: biochemical
Type: biochemical
RUN CONDITIONS: enantiomers; substrate PTCh, pH 7.4, 25 °C; K(I) ± SE; read-out: K(I)
Give bare numbers, as −log10 of the molar value.

As a guide, the following entries are already answered.
OCc1cc([C@H](O)CNCCCCCCOCCCCc2ccccc2)ccc1O [(S)-salmeterol]	4.82
CC(C)(C)NC[C@H](O)c1ccc(O)c(CO)c1 [(R)-salbutamol]	3.72
CC(C)(C)NC[C@H](O)c1cc(O)cc(O)c1 [(R)-terbutaline]	3.96
CC(C)(C)NC[C@@H](O)c1ccc(O)c(CO)c1 [(S)-salbutamol]	3.51
CC(C)NC[C@H](O)c1ccc(O)c(O)c1 [(R)-isoproterenol]	3.09

Please look at the following compound next.
GET pKi where system = usual BChE (Homo sapiens, UniProt P06276) and item = OCc1cc([C@@H](O)CNCCCCCCOCCCCc2ccccc2)ccc1O [(R)-salmeterol]
4.82

----------
TARGET OR SYSTEM: usual BChE (Homo sapiens)
Construct: Human native serum was used as a source of BChE; from tissue; host or cells: human serum (donor, IMROH Zagreb)
TEST NAME: biochemical
Type: biochemical
RUN CONDITIONS: K(I) AChE / K(I) BChE
So I've got a bunch of compounds here, and I need their selectivity: inhibition of usual BChE more potent than AChE (ratio of K(I) constants) values.
Give bare numbers, in times.

CC(C)(C)NCC(O)c1cc(O)cc(O)c1 (stereo not shown)	27

Please look at the following compound next.
Hello, please tell me recorded selectivity: inhibition of usual BChE more potent than AChE (ratio of K(I) constants) for this one: CC(C)(C)NCC(O)c1ccc(O)c(CO)c1 (stereo not shown)
28

This collection of values is drawn from paper PMC6445159.
